Test system: HepG2
Assay: Antiproliferative activity against human HepG2 cells after 48 hrs by MTT assay
Format: functional, cell-based
Conditions: HepG2, 48 h
endpoint: pIC50
pIC50 is a log-scale quantity: -log10 of the concentration expressed in molar.

Lab entry: HepG2 assay, compound "Cc1cccc2c(=O)c3c(NCc4ccncc4)ccc(C(=O)NCCN(C)C)c3[nH]c12" , pIC50 = 6.49

----------
Molecular target: DNA topoisomerase 1 (Homo sapiens)
Test: Inhibition of recombinant human Topo1-mediated relation of supercoiled pBR322 DNA at 50 uM after 30 mins by agarose gel electrophoresis
Active and inactive are the calls of the source. The calls are words filed in the database; no cut-off is given here.
// classify into active, inactive

Per the assay record, what outcome was assigned to "COCCNC(=O)c1ccc(NCc2cccnc2)c2c(=O)c3cccc(C)c3[nH]c12" ?
inactive

Which outcome was entered for the compound "CN(C)CCNC(=O)c1ccc(NCc2ccncc2)c2c(=O)c3cccc(C(F)(F)F)c3[nH]c12" in this test?
active

State the result this test recorded for "Cc1cccc2c(=O)c3c(NCc4cccnc4)ccc(C(=O)NCCCN(C)C)c3[nH]c12" .
active

What outcome does the record of this test show for "COc1cccc2c(=O)c3c(NCc4cccnc4)ccc(C(=O)NCCN(C)C)c3[nH]c12" ?
active

Please indicate how the test categorized "Cc1cccc2c(=O)c3c(NCc4ccncc4)ccc(C(=O)NCCN(C)C)c3[nH]c12" .
active

Identify the outcome logged in this assay for the compound shown: "CN(C)CCNC(=O)c1ccc(NCc2ccncc2)c2c(=O)c3ccccc3[nH]c12"
active

Which result was noted for this compound in the test: "CN(C)CCNC(=O)c1ccc(NCc2ccncc2)c2c(=O)c3cc(Cl)cc(Cl)c3[nH]c12"
active

// param item: "COc1cccc2c(=O)c3c(NCc4ccncc4)ccc(C(=O)NCCN(C)C)c3[nH]c12" ; yields the recorded call
active

How was "COc1cccc2c(=O)c3c(NCc4cccnc4)ccc(C(=O)NCCCN(C)C)c3[nH]c12" classified in this test?
active

Per the records of this test, what outcome belongs to "COCCNC(=O)c1ccc(NCc2ccncc2)c2c(=O)c3cccc(OC)c3[nH]c12" ?
inactive

What was the test verdict on "COc1cccc2c(=O)c3c(NCc4ccccn4)ccc(C(=O)NCCCN(C)C)c3[nH]c12" ?
active

Assay result, entry "Cc1cccc2c(=O)c3c(NCc4ccncc4)ccc(C(=O)NCCCN(C)C)c3[nH]c12" — outcome?
active

Assay result, entry "COc1cccc2c(=O)c3c(NCc4ccncc4)ccc(C(=O)NCCCN(C)C)c3[nH]c12" — outcome?
active

Dear colleague, could you share the recorded outcome for "COCCNC(=O)c1ccc(NCc2ccccn2)c2c(=O)c3cccc(C)c3[nH]c12" when you have a moment?
inactive

Please indicate how the test categorized "COc1cccc2c(=O)c3c(NCc4ccccn4)ccc(C(=O)NCCN(C)C)c3[nH]c12" .
active

Tell me the recorded outcome of this test for "COCCNC(=O)c1ccc(NCc2ccncc2)c2c(=O)c3cccc(C)c3[nH]c12" .
inactive

Outcome logged for "Cc1cccc2c(=O)c3c(NCc4cccnc4)ccc(C(=O)NCCN(C)C)c3[nH]c12" in this assay:
active

What did the test return for "COc1cccc2c(=O)c3c(NCc4ccncc4)ccc(C(=O)NCCCCN(C)C)c3[nH]c12" ?
active

Entry "COCCNC(=O)c1ccc(NCc2cccnc2)c2c(=O)c3cccc(OC)c3[nH]c12" : call = ?
inactive

Called result for "COCCNC(=O)c1ccc(NCc2ccccn2)c2c(=O)c3cccc(OC)c3[nH]c12"
inactive

Which result was noted for this compound in the test: "Cc1cccc2c(=O)c3c(NCc4ccccn4)ccc(C(=O)NCCN(C)C)c3[nH]c12"
active

Assay result, entry "Cc1cccc2c(=O)c3c(NCc4ccccn4)ccc(C(=O)NCCCN(C)C)c3[nH]c12" — outcome?
active

What is the recorded call for this compound in the test? "COc1cccc2c(=O)c3c(N(Cc4ccccn4)Cc4ccccn4)ccc(C(=O)NCCN(C)C)c3[nH]c12"
inactive

Identify the outcome logged in this assay for the compound shown: "COc1cccc2c(=O)c3c(N(Cc4ccccn4)Cc4ccccn4)ccc(C(=O)NCCCN(C)C)c3[nH]c12"
inactive

Record lookup: outcome of this test for "COc1cccc2c(=O)c3c(NCCc4ccncc4)ccc(C(=O)NCCN(C)C)c3[nH]c12" ?
active

Please let me know the test result on file for "COCCNC(=O)c1ccc(N(Cc2ccccn2)Cc2ccccn2)c2c(=O)c3cccc(C)c3[nH]c12" .
inactive
